- ASSAYED SYSTEM: trypsin
- TEST METHOD NOTES: TRF ELISA, Fab on biotinylated trypsin
MEASUREMENT NAME: TRF signal for 10 ug/mL Fab
Note: the reply should be a number with no unit written.

Examples with answers:
>>> obs_value("KB_A06 Fab (Fab, V domains shown) VH: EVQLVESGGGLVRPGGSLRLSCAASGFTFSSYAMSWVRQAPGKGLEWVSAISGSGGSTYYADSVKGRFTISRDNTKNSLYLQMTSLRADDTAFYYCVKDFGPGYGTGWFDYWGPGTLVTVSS VL: AVNWYQQLPGKAPKLLIYAAVRCPRILMRCKQDSDCLAGCVCGPNGFCGTPSGIPERFSGSIDRSTNSASLTISGLKTEDEADYYCQSYDSSNLNWVFGGGTKLTVLG")
242000
>>> obs_value("KB_C09 Fab (Fab, V domains shown) VH: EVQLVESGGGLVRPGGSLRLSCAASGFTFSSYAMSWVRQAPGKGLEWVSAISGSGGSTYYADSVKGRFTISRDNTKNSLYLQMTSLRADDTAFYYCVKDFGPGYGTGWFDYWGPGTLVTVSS VL: AVNWYQQLPGKAPKLLIYAAGRCPRILMRCKQDSDCLAGCVCGPNGFCGGGSGVPDRFSGSIDSSSNSASLTISGLRAEDEADYYCQSYDSSNHWVFGGGTKLTVLG")
289000
>>> obs_value("KB_A10 Fab (Fab, V domains shown) VH: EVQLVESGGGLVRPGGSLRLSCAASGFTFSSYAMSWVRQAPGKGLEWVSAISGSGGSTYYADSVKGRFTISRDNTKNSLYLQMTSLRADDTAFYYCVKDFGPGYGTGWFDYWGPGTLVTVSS VL: AVNWYQQLPGKAPKLLIYAAGGCPRILMRCKQDSDCLAGCVCGPNGFCGSNSGVPDRFSGSKSGNTASLTISGLQSEDEADYYCAAWDDSLSGVVFGGGTQLTVLG")
68700
>>> obs_value("KB_A07 Fab (Fab, V domains shown) VH: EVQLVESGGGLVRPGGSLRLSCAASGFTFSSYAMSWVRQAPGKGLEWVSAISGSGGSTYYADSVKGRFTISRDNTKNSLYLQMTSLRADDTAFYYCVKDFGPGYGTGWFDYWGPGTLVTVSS VL: YLNWYQQKPGKAPKLLIYAAGVCPRILMRCKQDSDCLAGCVCGPNGFCGSRSGVPSRFSGSGSGTDFTLTISSLQPEDFATYYCQQGASPPYTFGQGTKVEIKR")
226000

Fill in: TRF signal for 10 ug/mL Fab of KB_B01 Fab (Fab, V domains shown) VH: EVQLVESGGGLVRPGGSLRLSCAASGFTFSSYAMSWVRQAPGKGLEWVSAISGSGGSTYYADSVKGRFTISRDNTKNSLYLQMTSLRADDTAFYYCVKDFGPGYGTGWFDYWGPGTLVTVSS VL: AVNWYQQLPGKAPKLLIYAAAGCPRILMRCKQDSDCLAGCVCGPNGFCGTRSGVSDRFSGSKSGTSASLAISGLRSEDEADYYCAAWDDSLRAYVFGTGTKLTVLG is ___ 257000

Fill in: TRF signal for 10 ug/mL Fab of KB_A09 Fab (Fab, V domains shown) VH: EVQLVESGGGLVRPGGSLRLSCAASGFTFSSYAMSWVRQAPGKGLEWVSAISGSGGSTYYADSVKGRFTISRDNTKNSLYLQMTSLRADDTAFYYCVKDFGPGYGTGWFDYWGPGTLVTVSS VL: AVNWYQQLPGKAPKLLIYAAERCPRILMRCKQDSDCLAGCVCGPNGFCGTPSGVPDRFSGSIDTFSNSASLTISGLKTEDEADYYCQSYDSSHHWVFGGGTKLTVLG is ___ 161000

Fill in: TRF signal for 10 ug/mL Fab of KB_C10 Fab (Fab, V domains shown) VH: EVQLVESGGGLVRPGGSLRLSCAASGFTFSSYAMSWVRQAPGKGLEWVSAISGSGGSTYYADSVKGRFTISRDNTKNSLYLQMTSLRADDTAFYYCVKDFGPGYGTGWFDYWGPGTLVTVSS VL: AVNWYQQLPGKAPKLLIYAAGPCPRILMRCKQDSDCLAGCVCGPNGFCGADSGVSDRFSGSKSGTSASLAITGLQAEDEGDYYCAAWDDSLNGLVFGGGTKVTVLG is ___ 238000

Fill in: TRF signal for 10 ug/mL Fab of KB_A01 Fab (Fab, V domains shown) VH: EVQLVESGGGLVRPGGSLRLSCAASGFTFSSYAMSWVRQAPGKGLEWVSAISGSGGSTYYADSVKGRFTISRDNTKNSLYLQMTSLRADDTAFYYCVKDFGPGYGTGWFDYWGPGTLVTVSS VL: YLNWYQQKPGKAPKLLIYAAEVCPRILMRCKQDSDCLAGCVCGPNGFCGGTSGVPSRFSGSRSGTEFTLTISSLQPEDFATYYCQKVDDYPLTFGGGTKVEIKR is ___ 55600

Fill in: TRF signal for 10 ug/mL Fab of KB_A02 Fab (Fab, V domains shown) VH: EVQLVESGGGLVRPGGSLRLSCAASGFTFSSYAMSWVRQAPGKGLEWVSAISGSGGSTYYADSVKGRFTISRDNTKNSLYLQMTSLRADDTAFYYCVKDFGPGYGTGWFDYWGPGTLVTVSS VL: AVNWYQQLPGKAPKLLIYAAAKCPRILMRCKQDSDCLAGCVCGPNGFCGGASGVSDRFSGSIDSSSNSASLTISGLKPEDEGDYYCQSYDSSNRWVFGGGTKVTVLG is ___ 255000

Fill in: TRF signal for 10 ug/mL Fab of KB_C08 Fab (Fab, V domains shown) VH: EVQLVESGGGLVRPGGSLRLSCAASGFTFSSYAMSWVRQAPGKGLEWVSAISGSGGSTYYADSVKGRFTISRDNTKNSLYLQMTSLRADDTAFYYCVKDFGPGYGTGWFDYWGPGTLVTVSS VL: AVNWYQQLPGKAPKLLIYAAAVCPRILMRCKQDSDCLAGCVCGPNGFCGTRSGIPERFSGSKSGTSAFLAISGLRSEDEADYYCAAWDDSLSGVVFGGGTKLTVLG is ___ 183000
